- target under test: mA2a/CHO (Mus musculus (Mouse))
- Sequence (Q60613 whole entry): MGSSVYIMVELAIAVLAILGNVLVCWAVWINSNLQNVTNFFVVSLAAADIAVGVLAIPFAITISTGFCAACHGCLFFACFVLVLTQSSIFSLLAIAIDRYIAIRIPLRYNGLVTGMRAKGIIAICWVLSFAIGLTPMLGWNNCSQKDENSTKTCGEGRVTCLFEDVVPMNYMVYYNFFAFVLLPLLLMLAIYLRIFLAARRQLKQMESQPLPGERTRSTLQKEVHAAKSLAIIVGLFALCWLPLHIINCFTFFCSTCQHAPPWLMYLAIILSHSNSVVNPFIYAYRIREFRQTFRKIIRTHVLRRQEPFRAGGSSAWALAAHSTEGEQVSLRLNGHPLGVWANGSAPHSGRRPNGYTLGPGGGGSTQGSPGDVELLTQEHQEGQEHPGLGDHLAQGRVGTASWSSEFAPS
- method summary: cAMP inhibition assay in mA2a/CHO cells, 10 μM adenosine;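 note: compounds preincubated 30 min at 37 °C before the adenosine challenge, then 30 min further stimulation, readout after 60 min detection reagent incubation at room temperature in 384-well plates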
- Format: cell-based
- measurement conditions: read-out: cAMP & FLIPR IC50 (nM) mA2a
endpoint: IC50 (nM)
Report the figure in nM without appending any unit label.

- molecule: "Cc1cnc2ccc(-c3nc(C(=O)NC4CCC4)c(N)nc3-c3ncco3)cn12"
  target under test: "mA2a/CHO (Mus musculus (Mouse))"
  endpoint: "IC50"
  recorded measurement: 28
- molecule: "Cc1cnc2ccc(-c3nc(C(=O)NCC4(C)CCOC4)c(N)nc3-c3ncco3)cn12 (single isomer, unassigned; isomer 2) [Example 252]"
  target under test: "mA2a/CHO (Mus musculus (Mouse))"
  endpoint: "IC50"
  recorded measurement: 30
- molecule: "CC(NC(=O)c1nc(-c2ccc(=O)n(C)c2)c(-c2ncco2)nc1N)c1c(F)cccc1F (single isomer, unassigned) [Example 40]"
  target under test: "mA2a/CHO (Mus musculus (Mouse))"
  endpoint: "IC50"
  recorded measurement: 211
- molecule: "CNCCOc1cccnc1CNC(=O)c1nc(-c2ccc3ncn(C)c3c2)c(-c2ccc(F)cc2)nc1N"
  target under test: "mA2a/CHO (Mus musculus (Mouse))"
  endpoint: "IC50"
  recorded measurement: 12
- molecule: "Cc1cnc2ccc(-c3nc(C(=O)NCC4CN(C)CCO4)c(N)nc3-c3ccc(F)cc3)cn12 (single isomer, unassigned; isomer 1) [Example 246]"
  target under test: "mA2a/CHO (Mus musculus (Mouse))"
  endpoint: "IC50"
  recorded measurement: 67

IN: GET /values?readout=IC50&item= CCNC(=O)c1nc(-c2ccc3ncc(C)n3c2)c(-c2ncco2)nc1N
OUT: 65

IN: Another molecule to look at: Cc1cnc2ccc(-c3nc(C(=O)NCC4(C)CCOC4)c(N)nc3-c3ncco3)cn12 (single isomer, unassigned; isomer 1) [Example 251]
OUT: 34

IN: Another molecule to look at: Cc1cnc2ccc(-c3nc(C(=O)N[C@@H]4CCN(C)C4)c(N)nc3-c3ccc(F)cc3)cn12
OUT: 61

IN: Another molecule to look at: Cc1cnc2ccc(-c3nc(C(=O)NC[C@@H](C)O)c(N)nc3-c3ncco3)cn12
OUT: 205

IN: Another molecule to look at: Cc1cnc2ccc(-c3nc(C(=O)N[C@H]4CCCOC4)c(N)nc3-c3ncco3)cn12 (single isomer, unassigned; isomer 1)
OUT: 22
